B1: CPEB3 Ribozyme (parent)
chain: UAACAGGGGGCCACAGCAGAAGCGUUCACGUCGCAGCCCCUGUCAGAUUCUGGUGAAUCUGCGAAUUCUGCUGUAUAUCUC

Variants of: B1
ASSAY_INFO: self-cleavage, relative activity (ratio to wild type); higher = more cleavage; in vitro, sequencing
READOUT_KIND: self-cleavage
Answer with a bare number; do not write a unit.

Take a look at these entries with their results.
A20U C37U : 0.21
C34G A35G : 0.86
G22U A28G : 0.17
U78A C81U : 0.8
G8A A64G : 0.22

Challenge: Please look up its self-cleavage: C50G A56U
Response given: 0.45

Challenge: Bench note: what self-cleavage did C12U C14U show?
Response given: 1.25

The reported numbers originate from the RNAGym collection of RNA variant scans (doi:10.1093/nar/gkz1192).
